The measurements presented in this section are drawn from patent USRE48558.

Molecular target: T1, extracellular domain of human CD79b (human, UniProt P40259 29-159)
T1 construct: also called huCD79becd; huCD79b-ecd
T1 sequence: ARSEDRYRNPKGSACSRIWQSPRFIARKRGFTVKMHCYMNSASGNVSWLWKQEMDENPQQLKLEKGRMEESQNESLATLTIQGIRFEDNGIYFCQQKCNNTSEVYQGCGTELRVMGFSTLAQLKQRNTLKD
Assay: phage selection, Fab on phage, plate-bound huCD79becd
experimental-endpoint: binding result

[
  {
    "binder": "huMA79b graft variant SEQ ID NO: 27 (Fab, name in Kabat numbering, V domains shown, Fab on phage; rest as huMA79b graft) VH: EVQLVESGGGLVQPGGSLRLSCAASGYTFSSYWIEWVRQAPGKGLEWVGEILPGGGDTNYNEIFKGRFTISADTSKNTAYLQMNSLRAEDTAVYYCTRRVPVYFDYWGQGTLVTVSS VL: DIQMTQSPSSLSASVGDRVTITCKASQSVDYDGDSFLNWYQQKPGKAPKLLIYAARKLKSGVPSRFSGSGSGTDFTLTISSLQPEDFATYYCQQSNEDPLTFGQGTKVEIKR",
    "measurement": "binds"
  },
  {
    "binder": "huMA79b graft variant SEQ ID NO: 24 (Fab, name in Kabat numbering, V domains shown, Fab on phage; rest as huMA79b graft) VH: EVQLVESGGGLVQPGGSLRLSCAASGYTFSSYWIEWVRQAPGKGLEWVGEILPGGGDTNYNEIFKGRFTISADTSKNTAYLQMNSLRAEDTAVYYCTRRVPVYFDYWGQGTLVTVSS VL: DIQMTQSPSSLSASVGDRVTITCKASQSVDYDGDSFLNWYQQKPGKAPKLLIYAARKLGNGVPSRFSGSGSGTDFTLTISSLQPEDFATYYCQQSNEDPLTFGQGTKVEIKR",
    "measurement": "binds"
  },
  {
    "binder": "huMA79b graft variant SEQ ID NO: 56 (Fab, name in Kabat numbering, V domains shown, Fab on phage; rest as huMA79b graft) VH: EVQLVESGGGLVQPGGSLRLSCAASGYPFTSYWINWVRQAPGKGLEWVGEILPGGGDTNYNEIFKGRFTISADTSKNTAYLQMNSLRAEDTAVYYCTRRVPVYFDYWGQGTLVTVSS VL: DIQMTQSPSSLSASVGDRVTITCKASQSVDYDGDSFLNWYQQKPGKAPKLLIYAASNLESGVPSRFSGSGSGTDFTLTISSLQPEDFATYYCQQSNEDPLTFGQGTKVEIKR",
    "measurement": "binds"
  }
]
